Test: In vivo brain/plasma distribution in rats
Conditions: rat, iv, SD rats, single 0.3 mg/kg i.v., read-out: brain/plasma concentration ratio
Reported Metric: Kp

>>> value_reported("CC(=O)N1CC2(CCN(C(=O)[C@@H](CCCCN)NC(=O)[C@@H](CC(C)C)NC(=O)[C@@H](Cc3ccccc3)NC(=O)[C@H](N)Cc3ccccc3)CC2)C1 [HSK21542]")
0.001

====

Biological target: human κ opioid receptor (Homo sapiens, UniProt P41145)
Construct: expressed in transfected cells; cell membranes
Sequence (P41145 whole entry): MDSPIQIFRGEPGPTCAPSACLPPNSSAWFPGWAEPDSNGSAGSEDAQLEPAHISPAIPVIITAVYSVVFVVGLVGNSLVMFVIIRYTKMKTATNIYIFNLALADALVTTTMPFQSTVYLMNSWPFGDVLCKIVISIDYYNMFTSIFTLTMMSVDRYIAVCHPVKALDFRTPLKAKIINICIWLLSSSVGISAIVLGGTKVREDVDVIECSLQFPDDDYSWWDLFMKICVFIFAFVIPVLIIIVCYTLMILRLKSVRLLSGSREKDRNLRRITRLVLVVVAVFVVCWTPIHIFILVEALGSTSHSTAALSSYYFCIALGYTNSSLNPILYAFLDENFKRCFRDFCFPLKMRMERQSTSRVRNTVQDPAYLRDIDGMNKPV
Assay: [3H]diprenorphine binding assay
Details: competitive binding kinetic model, [3H]diprenorphine; read-out: Kd for binding to KOR (binding kinetics)
pKd: −log10 of the molar value.
Reported Metric: pKd

>>> value_reported("CC(=O)N1CC2(CCN(C(=O)[C@@H](CCCCN)NC(=O)[C@@H](CC(C)C)NC(=O)[C@@H](Cc3ccccc3)NC(=O)[C@H](N)Cc3ccccc3)CC2)C1")
10.17

====

Target: human κ opioid receptor (Homo sapiens)
pIC50: −log10 of the molar value.
Reported Metric: pIC50

>>> value_reported("CC(=O)N1CC2(CCN(C(=O)[C@@H](CCCCN)NC(=O)[C@@H](CC(C)C)NC(=O)[C@@H](Cc3ccccc3)NC(=O)[C@H](N)Cc3ccccc3)CC2)C1")
9.27
